Data origin, for the record: patent US8609680B2

biological target: human GHSR1a (Homo sapiens, UniProt Q92847); construct: expressed in transfected cells; host or cells: HEK293 Tetracycline-Inducible cell line, used as membranes; test: Human Ghrelin SPA Binding Assay
Sequence (Q92847 whole entry): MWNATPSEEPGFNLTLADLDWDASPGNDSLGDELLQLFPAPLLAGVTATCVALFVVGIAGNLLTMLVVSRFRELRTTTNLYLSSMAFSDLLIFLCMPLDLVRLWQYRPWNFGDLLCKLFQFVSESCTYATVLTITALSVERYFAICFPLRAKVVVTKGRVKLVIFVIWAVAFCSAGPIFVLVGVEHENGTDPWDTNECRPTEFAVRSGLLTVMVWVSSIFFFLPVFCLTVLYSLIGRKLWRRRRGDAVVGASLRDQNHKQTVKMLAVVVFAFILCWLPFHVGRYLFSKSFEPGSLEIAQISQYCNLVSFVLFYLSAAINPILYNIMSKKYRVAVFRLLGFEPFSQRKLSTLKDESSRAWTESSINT
pKi: −log10 of the molar value.
measured attribute: pKi

{"molecule": "COc1ccc(CC(=O)N2CCC3(CC2)CN([C@@H]2CCc4cc(-c5ccc(C#N)nc5)ccc42)C3)nc1", "numeric result": 7.22}
{"molecule": "COc1ccc(CC(=O)N2CCC3(CC2)CN([C@@H]2CCc4cc(-c5ncco5)ccc42)C3)nc1", "numeric result": 7.48}
{"molecule": "COc1ccc(CC(=O)N2CCC3(CC2)CN(C2CCc4cc(-c5nccs5)ccc42)C3)nc1 (stereo not shown) [Example 1F-1]", "numeric result": 8.40}
{"molecule": "Cc1ccn2cc(CC(=O)N3CCC4(CC3)CN([C@@H]3CCc5cc(-c6cnc(C(N)=O)cn6)ccc53)C4)nc2c1 [Example 10B]", "numeric result": 7.69}
{"molecule": "Cc1cc(-c2ccc3c(c2)CC[C@H]3N2CC3(CCN(C(=O)Cc4cn5nc(C)sc5n4)CC3)C2)ncn1", "numeric result": 8.22}
{"molecule": "COc1ccc(CC(=O)N2CCC3(CC2)CN([C@@H]2CCc4cc(-c5cnc(C(N)=O)cn5)ccc42)C3)nc1 [Example 10A]", "numeric result": 7.26}
{"molecule": "NC(=O)c1cnc(-c2ccc3c(c2)CC[C@H]3N2CC3(CCN(C(=O)Cc4cn5ccccc5n4)CC3)C2)cn1 [Example 10C]", "numeric result": 7.09}
{"molecule": "CCc1ccc(CC(=O)N2CCC3(CC2)CN([C@@H]2CCc4cc(-c5ccc(C(N)=O)cc5)ccc42)C3)nc1", "numeric result": 7.36}
{"molecule": "COc1ccc(CC(=O)N2CCC3(CC2)CN([C@@H]2CCc4cc(-c5ccc(C(N)=O)cn5)ccc42)C3)nc1 [Example 11A]", "numeric result": 7.54}
{"molecule": "Cc1ccn2cc(CC(=O)N3CCC4(CC3)CN([C@@H]3CCc5cc(-c6ncccn6)ccc53)C4)nc2c1", "numeric result": 7.50}
{"molecule": "CCc1cc(-c2ccc3c(c2)CC[C@H]3N2CC3(CCN(C(=O)Cc4ccc(OC)cc4C#N)CC3)C2)ncn1", "numeric result": 7.54}
{"molecule": "Cc1cc(C)nc(-c2ccc3c(c2)CC[C@H]3N2CC3(CCN(C(=O)Cc4cn5nc(C)sc5n4)CC3)C2)n1", "numeric result": 8.16}
{"molecule": "COc1ccc(CC(=O)N2CCC3(CC2)CN(C2CCc4cc(-c5nc(C)cc(C)n5)ccc42)C3)nc1 (racemic)", "numeric result": 7.29}
{"molecule": "N#Cc1cc(-c2ccc3c(c2)CC[C@H]3N2CC3(CCN(C(=O)Cc4ccc(C5CC5)cn4)CC3)C2)ncn1", "numeric result": 7.81}
{"molecule": "COc1ccc(CC(=O)N2CCC3(CC2)CN([C@@H]2CCc4cc(-c5ncccn5)ccc42)C3)c(C(N)=O)c1", "numeric result": 7.65}
{"molecule": "Cc1cc(-c2ccc3c(c2)CC[C@H]3N2CC3(CCN(C(=O)Cc4ccc5c(n4)OCCO5)CC3)C2)ncn1", "numeric result": 8.05}
{"molecule": "Cc1ccnc(-c2ccc3c(c2)CC[C@H]3N2CC3(CCN(C(=O)Cc4ccc5c(n4)OCCO5)CC3)C2)n1", "numeric result": 8.16}
{"molecule": "COc1ccc(CC(=O)N2CCC3(CC2)CN(C2CCc4cc(-c5ncc(C)s5)ccc42)C3)nc1 (stereo not shown)", "numeric result": 8.06}
{"molecule": "COc1ccc(CC(=O)N2CCC3(CC2)CN([C@@H]2CCc4cc(-c5cc(C)nc(C)n5)ccc42)C3)nc1", "numeric result": 7.48}
{"molecule": "COc1ccc(CC(=O)N2CCC3(CC2)CN([C@@H]2CCc4cc(-c5cc(OC)ncn5)ccc42)C3)nc1", "numeric result": 7.76}
{"molecule": "Cc1ccc(CC(=O)N2CCC3(CC2)CN([C@@H]2CCc4cc(-c5nccc(C)n5)ccc42)C3)nc1", "numeric result": 7.14}
{"molecule": "COc1ccc(CC(=O)N2CCC3(CC2)CN([C@@H]2CCc4cc(-c5nccc(C)n5)ccc42)C3)nc1", "numeric result": 7.81}
{"molecule": "Cc1ccn2cc(CC(=O)N3CCC4(CC3)CN([C@@H]3CCc5cc(-n6nccn6)ccc53)C4)nc2c1", "numeric result": 7.49}
{"molecule": "COc1ccc(NC(C)=O)c(CC(=O)N2CCC3(CC2)CN([C@@H]2CCc4cc(-c5ncccn5)ccc42)C3)c1", "numeric result": 7.50}
{"molecule": "NC(=O)c1ccc(-c2ccc3c(c2)CC[C@H]3N2CC3(CCN(C(=O)Cc4cn5ccccc5n4)CC3)C2)cc1", "numeric result": 7.43}
{"molecule": "NC(=O)c1ccc(-c2ccc3c(c2)CC[C@H]3N2CC3(CCN(C(=O)Cc4ccc(C5CC5)cn4)CC3)C2)cn1 [Example 10E]", "numeric result": 8.05}
{"molecule": "O=C(Cc1cc2n(n1)CCCC2)N1CCC2(CC1)CN(C1CCc3cc(-c4ncccn4)ccc31)C2 (racemic)", "numeric result": 8.03}
{"molecule": "CCc1ccc(CC(=O)N2CCC3(CC2)CN([C@@H]2CCc4cc(-c5ncccn5)ccc42)C3)cc1", "numeric result": 7.98}

====

target: human GHSR1a (Homo sapiens); construct: expressed in transfected cells; host or cells: HEK293 Tetracycline-Inducible cell line, used as membranes; assay: Human Ghrelin SPA Binding Assay
measured attribute: log10(Ki) (log10 of the value in nM)

{"structure smiles": "Cc1cn2cc(CC(=O)N3CCC4(CC3)CN([C@@H]3CCc5cc(-n6nccn6)ccc53)C4)nc2s1", "target or system": "human GHSR1a (Homo sapiens)", "log10(Ki)": 0.71}
{"structure smiles": "Cc1cn2cc(CC(=O)N3CCC4(CC3)CN([C@@H]3CCc5cc(-c6ccc(C(N)=O)nc6)ccc53)C4)nc2s1", "target or system": "human GHSR1a (Homo sapiens)", "log10(Ki)": 1.03}
{"structure smiles": "Cc1cc(-c2ccc3c(c2)CC[C@H]3N2CC3(CCN(C(=O)Cc4cn5ccccc5n4)CC3)C2)ncn1", "target or system": "human GHSR1a (Homo sapiens)", "log10(Ki)": 1.31}
{"structure smiles": "COc1ccc(CC(=O)N2CCC3(CC2)CN([C@@H]2CCc4ccccc42)C3)cc1", "target or system": "human GHSR1a (Homo sapiens)", "log10(Ki)": 2.42}
{"structure smiles": "COc1ccc(CC(=O)N2CCC3(CC2)CN([C@@H]2CCc4cc(-c5ccn(C)n5)ccc42)C3)nc1", "target or system": "human GHSR1a (Homo sapiens)", "log10(Ki)": 1.85}
{"structure smiles": "COc1ccc(CC(=O)N2CCC3(CC2)CN([C@@H]2CCc4cc(-c5ccnc(C)n5)ccc42)C3)nc1", "target or system": "human GHSR1a (Homo sapiens)", "log10(Ki)": 1.94}

====

target: human GHSR1a (Homo sapiens); construct: expressed in transfected cells; host or cells: HEK293 Tetracycline-Inducible cell line, used as membranes; test: Human Ghrelin SPA Binding Assay; conditions: SPA format, [125I] ghrelin displacement, human GHSR1a membranes; Ki=IC50/(1+[ligand]/Kd)
pKi: −log10 of the molar value.
Response key: Criterion met means pKi >= 8; Criterion not met means pKi < 8.

{"structure smiles": "Cc1ccc(CC(=O)N2CCC3(CC2)CN([C@@H]2CCc4cc(-c5ncccn5)ccc42)C3)nc1", "target or system": "human GHSR1a (Homo sapiens)", "class assignment": "Criterion not met"}
{"structure smiles": "COc1ccc(CC(=O)N2CCC3(CC2)CN([C@@H]2CCc4cc(-n5nccn5)ccc42)C3)nc1", "target or system": "human GHSR1a (Homo sapiens)", "class assignment": "Criterion met"}

====

molecular target: human GHSR1a (Homo sapiens, UniProt Q92847); construct: expressed in transfected cells; host or cells: HEK293 Tetracycline-Inducible cell line, used as membranes; assay: Human Ghrelin SPA Binding Assay
measured attribute: log10 of IC50 (log10 of the value in nM)

{"compound": "NC(=O)c1ccc(-c2ccc3c(c2)CC[C@H]3N2CC3(CCN(C(=O)Cc4ccc(C5CC5)cn4)CC3)C2)cn1 [Example 10E]", "log10 of IC50": 1.00}
{"compound": "COc1ccc(CC(=O)N2CCC3(CC2)CN([C@@H]2CCc4cc(-c5ncc(C)cn5)ccc42)C3)nc1", "log10 of IC50": 0.98}
{"compound": "O=C(Cc1cc2ccccn2n1)N1CCC2(CC1)CN(C1CCc3cc(-c4ncccn4)ccc31)C2 (racemic)", "log10 of IC50": 0.77}
{"compound": "Cc1ccnc(-c2ccc3c(c2)CC[C@H]3N2CC3(CCN(C(=O)Cc4ccc5c(n4)OCCO5)CC3)C2)n1", "log10 of IC50": 0.91}
{"compound": "COc1ccc(CC(=O)N2CCC3(CC2)CN([C@@H]2CCc4cc(-c5ncccn5)ccc42)C3)c(C(N)=O)c1", "log10 of IC50": 1.41}
{"compound": "O=C(Cc1ccc(C(F)(F)F)cc1)N1CCC2(CC1)CN([C@@H]1CCc3cc(-c4ncccn4)ccc31)C2", "log10 of IC50": 1.96}
{"compound": "Cc1nn2cc(CC(=O)N3CCC4(CC3)CN(C3CCc5cc(-n6nccn6)ccc53)C4)nc2s1 (stereo not shown)", "log10 of IC50": 1.05}
